Provenance of the data: ChEMBL document CHEMBL4350967

# system_under_test: Cannabinoid receptor 1 (Homo sapiens)
# Sequence (P21554 whole entry): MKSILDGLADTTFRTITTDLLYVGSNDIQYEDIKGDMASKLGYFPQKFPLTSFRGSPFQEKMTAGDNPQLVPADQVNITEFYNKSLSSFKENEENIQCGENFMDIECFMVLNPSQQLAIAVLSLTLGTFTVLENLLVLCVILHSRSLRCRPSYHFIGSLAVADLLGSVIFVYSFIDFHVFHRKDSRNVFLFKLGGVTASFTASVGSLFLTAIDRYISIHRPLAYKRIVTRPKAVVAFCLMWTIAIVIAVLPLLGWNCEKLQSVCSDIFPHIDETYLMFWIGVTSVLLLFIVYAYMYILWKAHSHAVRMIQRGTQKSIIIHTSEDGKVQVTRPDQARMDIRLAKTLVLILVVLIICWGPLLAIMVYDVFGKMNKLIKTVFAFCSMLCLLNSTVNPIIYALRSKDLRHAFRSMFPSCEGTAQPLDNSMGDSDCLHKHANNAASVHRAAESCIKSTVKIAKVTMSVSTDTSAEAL
# assay_explanation: Positive allosteric modulation of human CB1 receptor expressed in CHOK1 cells assessed as increase in CP55940-induced beta-arrestin recruitment preincubated for 30 mins followed by CP55940 addition and measured after 90 to 180 mins by PathHunter assay
# Format: cell-based
I'd be grateful if you could share measured EC50 for these entries.
Give the number; nM is assumed, so skip it.

Ask: Report EC50, nothing else, for this compound: N#CCC(c1ccccc1)c1c(-c2ccccc2)[nH]c2cc(Cl)ccc12 (racemic)
Reply: 1110

Ask: Report EC50, nothing else, for this compound: FC(F)(F)CC(c1cccs1)c1c(C2CCCC2)[nH]c2cc(C(F)(F)F)ccc12 (racemic)
Reply: 301

Ask: Report EC50, nothing else, for this compound: N#Cc1ccc2c([C@@H](CC(F)(F)F)c3cccs3)c(-c3ccccc3)[nH]c2c1
Reply: 363

Ask: Report EC50, nothing else, for this compound: N#Cc1ccc2c(C(C[N+](=O)[O-])c3cccs3)c(-c3ccccc3)[nH]c2c1 (single isomer, unassigned; (+))
Reply: 863
